Just for reference, patent US20220010021A1 is where these values come from.

- tested.on: human FGFR1c + KLB receptor complex on HEK293 iLite FGF21 reporter cells (human, UniProt P11362 22-822; Q86Z14 1-1044)
- Sequence (P11362 22-822, chain 1 of 2): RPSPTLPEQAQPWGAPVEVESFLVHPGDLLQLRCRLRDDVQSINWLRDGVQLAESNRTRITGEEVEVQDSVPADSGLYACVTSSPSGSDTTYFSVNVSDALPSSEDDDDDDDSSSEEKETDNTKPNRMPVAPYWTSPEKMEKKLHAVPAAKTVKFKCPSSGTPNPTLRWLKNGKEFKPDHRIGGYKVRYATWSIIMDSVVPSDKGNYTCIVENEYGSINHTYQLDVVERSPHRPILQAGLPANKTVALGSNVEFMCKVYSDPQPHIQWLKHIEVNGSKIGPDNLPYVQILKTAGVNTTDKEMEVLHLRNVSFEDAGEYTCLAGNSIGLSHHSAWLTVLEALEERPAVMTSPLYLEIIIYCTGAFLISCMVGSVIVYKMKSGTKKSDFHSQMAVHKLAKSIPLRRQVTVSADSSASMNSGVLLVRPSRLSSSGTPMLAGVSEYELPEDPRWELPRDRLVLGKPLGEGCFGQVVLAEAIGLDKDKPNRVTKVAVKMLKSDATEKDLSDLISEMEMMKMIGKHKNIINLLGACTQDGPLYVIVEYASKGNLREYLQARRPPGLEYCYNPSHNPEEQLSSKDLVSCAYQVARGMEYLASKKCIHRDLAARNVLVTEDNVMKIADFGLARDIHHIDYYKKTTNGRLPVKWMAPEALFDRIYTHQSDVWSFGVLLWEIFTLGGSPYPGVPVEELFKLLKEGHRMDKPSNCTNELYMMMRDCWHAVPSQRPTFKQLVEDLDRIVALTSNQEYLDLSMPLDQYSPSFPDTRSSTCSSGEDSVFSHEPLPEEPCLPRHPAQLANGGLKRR
- Sequence (Q86Z14 whole entry, chain 2 of 2): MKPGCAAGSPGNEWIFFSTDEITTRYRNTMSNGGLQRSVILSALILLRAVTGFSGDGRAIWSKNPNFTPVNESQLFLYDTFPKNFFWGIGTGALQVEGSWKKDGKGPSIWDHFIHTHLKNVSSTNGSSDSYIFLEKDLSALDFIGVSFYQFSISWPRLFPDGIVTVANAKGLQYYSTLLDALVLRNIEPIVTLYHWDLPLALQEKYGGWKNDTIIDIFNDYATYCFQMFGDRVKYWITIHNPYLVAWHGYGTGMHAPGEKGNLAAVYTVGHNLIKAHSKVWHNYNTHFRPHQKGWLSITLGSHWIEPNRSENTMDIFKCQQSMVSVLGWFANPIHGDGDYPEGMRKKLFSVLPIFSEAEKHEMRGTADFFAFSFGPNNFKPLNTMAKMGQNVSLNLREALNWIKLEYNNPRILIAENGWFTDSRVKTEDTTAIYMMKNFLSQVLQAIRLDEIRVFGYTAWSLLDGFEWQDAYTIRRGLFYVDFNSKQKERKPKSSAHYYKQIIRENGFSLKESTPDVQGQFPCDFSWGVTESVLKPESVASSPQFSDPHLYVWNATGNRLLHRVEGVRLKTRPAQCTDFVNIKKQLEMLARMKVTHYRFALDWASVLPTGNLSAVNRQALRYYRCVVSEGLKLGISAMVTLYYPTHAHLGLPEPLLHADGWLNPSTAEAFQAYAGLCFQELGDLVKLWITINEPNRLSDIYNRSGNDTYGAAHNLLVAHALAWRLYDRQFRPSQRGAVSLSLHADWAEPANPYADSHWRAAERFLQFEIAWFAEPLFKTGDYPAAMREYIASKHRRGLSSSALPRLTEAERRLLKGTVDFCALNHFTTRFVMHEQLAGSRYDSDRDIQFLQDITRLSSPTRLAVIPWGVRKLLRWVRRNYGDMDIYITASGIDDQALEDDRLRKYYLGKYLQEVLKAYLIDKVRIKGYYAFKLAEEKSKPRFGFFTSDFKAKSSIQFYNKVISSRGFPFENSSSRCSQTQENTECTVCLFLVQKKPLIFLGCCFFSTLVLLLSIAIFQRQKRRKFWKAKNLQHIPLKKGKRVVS
- measurement.notes: cell-based or functional assay
Attribute: Emax
experimental.readout: Emax (%)

# binder, measured.number
data = [
    ("Ab0359 (antibody, IgG4, V domains shown) VH: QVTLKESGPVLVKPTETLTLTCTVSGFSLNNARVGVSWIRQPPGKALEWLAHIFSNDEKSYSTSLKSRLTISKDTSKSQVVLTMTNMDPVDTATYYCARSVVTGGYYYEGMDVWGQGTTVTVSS VL: SYVLTQPPSVSVAPGQTARITCGGSNIGSESVHWYQQKPGQAPVLVVYEHSDRPSGIPERFSGSNSGNTATLTISRVEAGDEADYYCQVWAGSSDHVVFGGGTKLTVLG", 550),
    ("Ab0303 (antibody, IgG4, V domains shown) VH: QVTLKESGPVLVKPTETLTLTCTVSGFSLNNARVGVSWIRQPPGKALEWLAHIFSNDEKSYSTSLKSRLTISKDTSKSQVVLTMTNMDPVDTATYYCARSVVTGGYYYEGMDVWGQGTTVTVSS VL: SYVLTQPPSVSVAPGQTARITCGGSNIGSESVHWYQQKPGQAPVLVVYDESDRPSGIPERFSGSNSGNTATLTISRVEAGDEADYYCQVWTGNSDHVVFGGGTKLTVLG", 809),
    ("Ab0453 (antibody, IgG4, V domains shown) VH: QVTLKESGPVLVKPTETLTLTCTVSGFSLSNARVGVSWIRQPPGKALEWLAHIFSNDEKSYSTSLKSRLTISKDTSKSQVVLTMTNMDPVDTATYYCARSVVTGGYYYEGMDVWGQGTTVTVSS VL: SYVLTQPPSVSVAPGQTARITCGGSNIGSESVHWYQQKPGQAPVLVVYSESDRPSGIPERFSGSNSGNTATLTISRVEAGDEADYYCQVWEGESDHVVFGGGTKLTVLG", 1400),
    ("Ab0308 (antibody, IgG4, V domains shown, IgG4 PE) VH: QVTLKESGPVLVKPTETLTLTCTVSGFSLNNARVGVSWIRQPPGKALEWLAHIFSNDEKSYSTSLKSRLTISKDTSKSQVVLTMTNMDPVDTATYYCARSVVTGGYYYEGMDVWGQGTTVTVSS VL: SYVLTQPPSVSVAPGQTARITCGGSNIGSESVHWYQQKPGQAPVLVVYYDSDRPSGIPERFSGSNSGNTATLTISRVEAGDEADYYCQVWDGESDHVVFGGGTKLTVLG", 1070),
    ("Ab0357 (antibody, IgG4, V domains shown, IgG4 PE) VH: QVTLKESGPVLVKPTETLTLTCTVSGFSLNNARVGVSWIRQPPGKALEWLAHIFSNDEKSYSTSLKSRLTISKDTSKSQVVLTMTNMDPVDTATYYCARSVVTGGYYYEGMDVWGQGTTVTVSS VL: SYVLTQPPSVSVAPGQTARITCGGSNIGSESVHWYQQKPGQAPVLVVYEASDRPSGIPERFSGSNSGNTATLTISRVEAGDEADYYCQVWEGSSDHVVFGGGTKLTVLG", 893),
]
